Measured values drawn from patent US9090593B2 for this set.

ASSAY_TARGET: full length recombinant Pim-2 protein (Homo sapiens)
Construct: by full length recombinant Pim-1, Pim-2, or Pim-3 protein; hexahistidine tag followed by a thrombin cleavage site (N); made in house; host or cells: Sf9 (baculovirus) or E. coli (pET28)
Sequence (Q9P1W9 whole entry): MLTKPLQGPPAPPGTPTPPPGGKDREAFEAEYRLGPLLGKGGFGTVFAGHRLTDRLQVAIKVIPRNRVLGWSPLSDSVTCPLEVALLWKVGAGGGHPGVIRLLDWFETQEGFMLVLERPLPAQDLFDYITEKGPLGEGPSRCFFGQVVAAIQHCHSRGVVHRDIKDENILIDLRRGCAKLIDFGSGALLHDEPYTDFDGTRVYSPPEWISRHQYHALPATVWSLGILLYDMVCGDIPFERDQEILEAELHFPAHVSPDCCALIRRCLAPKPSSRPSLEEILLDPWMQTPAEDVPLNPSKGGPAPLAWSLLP
METHOD_DESCRIPTION: Pim-2 enzyme assay (HTRF, phosphorylation of biotinylated-BAD (S112) peptide)
Type: biochemical
TEST_SETTINGS: enzyme assay, Pim-2; read-out: Pim2_IC50
pIC50: −log10 of the molar value.
In this section we review reported pIC50 values for a set of molecules.
READOUT: pIC50

> print(dat)
                                smiles.code  reading
1  NC1CCN(c2cncc(-c3n[nH]c4ccc(-c5cnc6[nH]ccc6c5)cc34)n2)CC1     8.00
2  COc1cncc(-c2c[nH]c3ccc(-c4cncc(OC(C)C)n4)cc23)n1     5.64
3  CCNC(=O)c1ccc(F)c(-c2ccc3[nH]nc(-c4cncc(N5CCC(N)CC5)n4)c3c2)c1     8.30
4  O=C1CN(c2cncc(-c3c[nH]c4ccc(-c5c(F)cccc5F)cc34)n2)CCN1     6.01

* * *

ASSAY_TARGET: full length recombinant Pim-1 protein (Homo sapiens, UniProt P11309)
Construct: by full length recombinant Pim-1, Pim-2, or Pim-3 protein; hexahistidine tag followed by a thrombin cleavage site (N); made in house; host or cells: Sf9 (baculovirus) or E. coli (pET28)
Sequence (P11309 whole entry): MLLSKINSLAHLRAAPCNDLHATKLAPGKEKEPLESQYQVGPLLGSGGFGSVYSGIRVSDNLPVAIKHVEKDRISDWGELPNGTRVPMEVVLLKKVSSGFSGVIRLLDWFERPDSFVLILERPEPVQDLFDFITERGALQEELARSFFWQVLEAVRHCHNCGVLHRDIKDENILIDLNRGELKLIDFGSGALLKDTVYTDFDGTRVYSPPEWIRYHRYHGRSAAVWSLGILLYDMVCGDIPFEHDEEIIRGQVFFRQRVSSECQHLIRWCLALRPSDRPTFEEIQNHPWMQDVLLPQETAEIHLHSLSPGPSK
METHOD_DESCRIPTION: Pim-1 enzyme assay (HTRF, phosphorylation of biotinylated-BAD (S112) peptide)
Type: biochemical
TEST_SETTINGS: read-out: Pim_1_IC50
pIC50: −log10 of the molar value.
READOUT: pIC50

> print(dat)
                                    compound                              assay.target  reading
 1  CC(c1ccc2[nH]nc(-c3cncc(O[C@H]4CNCCC45CC5)n3)c2c1)C(F)(F)F (single isomer, unassigned) [Example 259]  full length recombinant Pim-1 protein (Homo sapiens, UniProt P11309)     7.89
 2  Fc1cccc(F)c1-c1ccc2[nH]cc(-c3cncc(OC4CNCCC45CC5)n3)c2c1 (single isomer, unassigned) [Example 439]  full length recombinant Pim-1 protein (Homo sapiens, UniProt P11309)     6.80
 3  Nc1ncc(-c2ccc3[nH]nc(-c4cncc(O[C@H]5CNCCC56CC6)n4)c3c2)cn1 [Example 464]  full length recombinant Pim-1 protein (Homo sapiens, UniProt P11309)     8.40
 4  CC(=O)Nc1ccc(-c2ccc3[nH]cc(-c4cncc(O[C@@H]5CCCNC5)n4)c3c2)cc1 [Example 327]  full length recombinant Pim-1 protein (Homo sapiens, UniProt P11309)     8.30
 5  N#Cc1ccc2[nH]nc(-c3cncc(O[C@H]4CNCCC45CC5)n3)c2c1 [Example 254]  full length recombinant Pim-1 protein (Homo sapiens, UniProt P11309)     6.44
 6  c1cc2[nH]cc(-c3cncc(O[C@@H]4CCCNC4)n3)c2cc1-c1cncc(OC2CCCC2)n1 [Example 318]  full length recombinant Pim-1 protein (Homo sapiens, UniProt P11309)     7.46
 7  OC1CN(c2cncc(-c3n[nH]c4ccc(-c5c(F)cccc5F)cc34)n2)CC1O (stereo not drawn) [Example 450]  full length recombinant Pim-1 protein (Homo sapiens, UniProt P11309)     6.80
 8  FC(F)(F)C1(c2ccc3[nH]nc(-c4cncc(O[C@H]5CNCCC56CC6)n4)c3c2)CC1 [Example 261]  full length recombinant Pim-1 protein (Homo sapiens, UniProt P11309)     8.22
 9  N#Cc1cccc(F)c1-c1ccc2[nH]nc(-c3cncc(O[C@H]4CNCCC45CC5)n3)c2c1 [Example 409]  full length recombinant Pim-1 protein (Homo sapiens, UniProt P11309)     9.00
10  CC(C)Oc1cncc(-c2ccc3[nH]cc(-c4nnc(N[C@@H]5CCCNC5)o4)c3c2)n1 [Example 518]  full length recombinant Pim-1 protein (Homo sapiens, UniProt P11309)     7.60
11  Oc1ncc(-c2ccc3[nH]cc(-c4cncc(O[C@@H]5CCCNC5)n4)c3c2)c(O)n1 [Example 293]  full length recombinant Pim-1 protein (Homo sapiens, UniProt P11309)     7.80
12  CN(C)c1cc(=O)[nH]c(-c2c[nH]c3ccc(-c4c(F)cccc4F)cc23)n1 [Example 496]  full length recombinant Pim-1 protein (Homo sapiens, UniProt P11309)     6.80
13  O=C(O)c1ccc2[nH]nc(-c3cncc(N[C@@H]4CCCNC4)n3)c2c1 [Example 495]  full length recombinant Pim-1 protein (Homo sapiens, UniProt P11309)     7.15
14  Fc1cccc(F)c1-c1ccc2[nH]nc(-c3cncc(CC4CCCNC4)n3)c2c1 (single isomer, unassigned) [Example 273]  full length recombinant Pim-1 protein (Homo sapiens, UniProt P11309)     7.15
15  c1coc(-c2ccc3[nH]cc(-c4cncc(N[C@@H]5CCCNC5)n4)c3c2)n1 [Example 542]  full length recombinant Pim-1 protein (Homo sapiens, UniProt P11309)     8.70
